Hello, the source for this data is paper PMC4832822, in case you need it.

- Method description: log P determination by 19F NMR shake-flask method with internal fluorinated reference (octanol/water)
- Condition set: octanol/water, Average logP, 25 °C; reference TFE (+0.36)
Recorded metric: logP

# Compound, logP
measured = [
    ("CCCC(O)C(F)(F)F (stereo not drawn) [compound 29, 1,1,1-trifluoropentan-2-ol]", 1.82),
]

(I) OCCCCC(F)(F)F [compound 35]
(II) OCCC(F)F [compound 10]
Input pair: I , II . Output: entry with lower logP. I would appreciate it if you answered with the label of your choice.
II

====

- Method description: log P determination by 19F NMR shake-flask method with internal fluorinated reference (octanol/water)
- Condition set: octanol/water, error (mean logP to three decimals), reference FE (-0.75)
Recorded metric: logP

# Molecule, Recorded metric, Value
data = [
    ("OC[C@H](F)[C@@H](F)CO [compound 39]", "logP", -1.01),
    ("OC[C@@H](F)[C@@H](F)CO [compound 40]", "logP", -0.968),
]
